system: LNCaP; experiment: Cytotoxicity against human LNCAP cells after 120 hrs by MTT assay; type: functional, cell-based
pIC50: −log10 of the molar value.

{"Substance smiles": "Nc1ccc2c(c1)CN1C(=O)c3ccccc3C1=N2", "pIC50": 4.04}

----------
experiment: Cytotoxicity against mouse NIH/3T3 cells after 120 hrs by MTT assay; assay type: functional, cell-based; conditions: NIH3T3, 120 h
pIC50: −log10 of the molar value.
Property label: pIC50

{"Substance smiles": "Nc1ccc2c(c1)CN1C(=O)c3ccccc3C1=N2", "Property label": "pIC50", "Measured number": 4.16}

----------
Molecular target: DNA topoisomerase 1 (Homo sapiens) (UniProt P11387)
Sequence (whole entry): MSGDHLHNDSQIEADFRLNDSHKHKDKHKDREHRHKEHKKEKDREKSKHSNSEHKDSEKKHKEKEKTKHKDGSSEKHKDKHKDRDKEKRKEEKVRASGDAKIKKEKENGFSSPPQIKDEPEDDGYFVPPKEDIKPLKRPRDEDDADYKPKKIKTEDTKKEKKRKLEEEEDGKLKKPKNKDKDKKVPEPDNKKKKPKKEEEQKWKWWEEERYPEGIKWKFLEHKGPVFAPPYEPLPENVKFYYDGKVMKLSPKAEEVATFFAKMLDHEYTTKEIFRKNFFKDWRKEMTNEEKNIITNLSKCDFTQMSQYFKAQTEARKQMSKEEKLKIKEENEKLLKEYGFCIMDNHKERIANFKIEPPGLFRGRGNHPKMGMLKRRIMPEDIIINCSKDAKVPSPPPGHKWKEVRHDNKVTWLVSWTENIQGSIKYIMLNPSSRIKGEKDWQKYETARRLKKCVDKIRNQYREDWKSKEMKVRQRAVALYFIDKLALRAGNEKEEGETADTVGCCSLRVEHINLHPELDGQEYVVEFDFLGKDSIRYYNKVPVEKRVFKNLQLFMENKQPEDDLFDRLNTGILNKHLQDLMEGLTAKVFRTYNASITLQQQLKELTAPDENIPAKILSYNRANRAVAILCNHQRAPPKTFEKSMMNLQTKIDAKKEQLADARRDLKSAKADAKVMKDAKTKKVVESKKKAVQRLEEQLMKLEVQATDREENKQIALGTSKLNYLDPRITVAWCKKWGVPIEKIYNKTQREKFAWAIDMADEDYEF
Test: Inhibition of human topoisomerase-1-mediated relaxation of supercoiled plasmid pBR322 DNA at 1 to 100 uM after 30 mins by ethidium bromide staining
Activity calls are given as the source filed them. No cut-off for these calls is given here. Non-standard residues stand in square brackets, D forms with d. Residues, ends and D or L forms follow the SMILES beside them. *: point of attachment. Batracylin(8-NH) = O=C1c2ccccc2C2=Nc3ccc(N*)cc3CN12; Arg(NO2) = N=C(NCCC[C@H](N)C(=O)O)N[N+](=O)[O-]
Property label: inhibition

{"Compound": "CC(C)C[C@H](N)C(=O)NCCCC[C@H](NC(=O)[C@@H]1CCCN1C(=O)[C@@H](N)CCCNC(=N)N[N+](=O)[O-])C(=O)N[C@H](C(=O)Nc1ccc2c(c1)CN1C(=O)c3ccccc3C1=N2)[C@@H](C)O (H-[Arg(NO2)]PK(Leu)T-{Batracylin(8-NH)})", "Target entity": "DNA topoisomerase 1 (Homo sapiens) (UniProt P11387)", "Result": "inactive"}
{"Compound": "CC[C@H](C)[C@H](N)C(=O)NCCCC[C@H](NC(=O)[C@@H]1CCCN1C(=O)[C@@H](N)CCCNC(=N)N[N+](=O)[O-])C(=O)N[C@H](C(=O)Nc1ccc2c(c1)CN1C(=O)c3ccccc3C1=N2)[C@@H](C)O (H-[Arg(NO2)]PK(Ile)T-{Batracylin(8-NH)})", "Target entity": "DNA topoisomerase 1 (Homo sapiens) (UniProt P11387)", "Result": "inactive"}
{"Compound": "Nc1ccc2c(c1)CN1C(=O)c3ccccc3C1=N2 [DANIQUIDONE]", "Target entity": "DNA topoisomerase 1 (Homo sapiens) (UniProt P11387)", "Result": "inactive"}

----------
assay: Cytotoxicity against human HCT116 cells after 120 hrs by MTT assay; format: functional, cell-based; details: HCT-116, 120 h
pIC50: −log10 of the molar value.
Property label: pIC50

{"Substance smiles": "Nc1ccc2c(c1)CN1C(=O)c3ccccc3C1=N2", "Measured number": 4.05}
